# System: SK-OV-3
# Assay Name: NCI tumour cell line growth inhibition, 48 h
Activity calls are given as the source filed them. No stated cut-off is given here; in the data, active = GI50 up to about 1.1 µM and inactive = higher.
Can you tell me GI50 for the items I'm about to list?

# lookup: GI50 of "CCCO/N=[N+](\[O-])N(CC)CC" > 100 µM (inactive)

# lookup: GI50 of "Cc1ncn(-c2ccccc2O)c1C" > 100 µM (inactive)

# lookup: GI50 of "Cc1c(/N=C/C=C/c2ccccc2)c(=O)n(-c2ccccc2)n1C" > 100 µM (inactive)

# lookup: GI50 of "CC(=O)Oc1c(N2CCCCC2)c(C(=O)c2ccccc2)c(O)c2ccn(N(C)C)c12" 20.8 µM (inactive)

# lookup: GI50 of "CN1C(=O)CNS1(=O)=O" > 100 µM (inactive)

# lookup: GI50 of "CN1CCN(c2nc3ccccc3nc2C(=O)c2ccc(Cl)cc2)CC1" > 100 µM (inactive)

# lookup: GI50 of "[N-]=[N+]=Nc1cc(=O)oc2ccccc12" > 100 µM (inactive)

# lookup: GI50 of COC(=O)CC1C[C@H](C#N)N(C(=O)c2ccccc2)C[C@@H]1CC[N+](=O)[O-] (stereo not given in full) > 100 µM (inactive)

# lookup: GI50 of CC1Oc2cc3c(-c4c(O)cc(O)c5c(O)c6c(cc45)OC(C)C(C)C6=O)c(O)cc(O)c3c(O)c2C(=O)C1C (stereo not given) 0.363 µM (active)

# lookup: GI50 of O=C(c1ccc(Cl)cc1Cl)C1[C@H]2C(=O)N(c3ccc(Cc4ccc(N5C(=O)[C@@H]6ON(c7ccccc7)C(C(=O)c7ccc(Cl)cc7Cl)[C@@H]6C5=O)cc4)cc3)C(=O)[C@H]2ON1c1ccccc1 (stereo not given in full) > 50 µM (inactive)

# lookup: GI50 of COc1ccc2c(c1)OCC1Cc3cc4c(cc3OC21)OCO4 (stereo not given) 37.2 µM (inactive)

# lookup: GI50 of O=C(O)c1ccc(NC(=O)C2C(=O)C(=O)N(c3ccc(C(=O)O)cc3)C2=O)cc1 (stereo not given) > 100 µM (inactive)

# lookup: GI50 of O=C(Nc1ccc(Cl)c(Cl)c1)C1C(=O)N(c2ccc(Cl)c(Cl)c2)C(=O)/C1=N\O (stereo not given) > 100 µM (inactive)

# lookup: GI50 of "CN(C)c1ccc(/C=C/C=C\c2cc(/C=C/C=C/c3ccc(N(C)C)cc3)[s+]c3ccccc23)cc1.[O-][Cl+3]([O-])([O-])[O-]" 43.7 µM (inactive)

# lookup: GI50 of COc1cc(C2c3cc4c(cc3[C@@H](NC3CCN(Cc5ccccc5)CC3)C3COC(=O)[C@H]23)OCO4)cc(OC)c1O (stereo not given in full) 0.0457 µM (active)

# lookup: GI50 of "COC1=CC(=O)c2c(c(COP(=O)(N(C)CCBr)N(C)CCBr)cn2C)C1=O" 0.121 µM (active)

# lookup: GI50 of "COc1ccc(O[C@H](CO)C[C@@H]2COC(C)(C)O2)cc1" > 100 µM (inactive)

# lookup: GI50 of "CC(=O)NCc1nc(C#N)c(N)o1" > 100 µM (inactive)

# lookup: GI50 of O=C(CN(c1ccccc1)c1ccccc1)N1c2ccccc2C2C=CC=CC21 (stereo not given) 23.6 µM (inactive)

# lookup: GI50 of OC1CCC(COC(c2ccccc2)(c2ccccc2)c2ccccc2)O1 (stereo not given) 20.2 µM (inactive)
